# Test system: Fibroblast
# PROTOCOL TEXT: Multiplex assay against human fibroblast
# Type: toxicity, cell-based
# CONDITION SUMMARY: 24 h, 1 µM, compound concentration 1 uM, replicate 1
List of Population Hoechst High Intensity Objects (%) values.
ASSAY ENDPOINT: Population Hoechst High Intensity Objects (%)

[[record]]
compound = "COc1cc(OC2CCN(C(C)=O)CC2)ccc1C(=O)N1CCC(N2C(=O)OCc3ccccc32)CC1"
measure_unit = "%"
reported = 1

[[record]]
compound = "CN(C)C(=O)Cn1cc(-c2ccc(-c3nnc4ccccn34)cc2)cn1"
measure_unit = "%"
reported = 0

[[record]]
compound = "CCc1nn2c(C)cc(C)nc2c1Cc1ccc(-c2nnc(C3CCNCC3)o2)cc1"
measure_unit = "%"
reported = 1

[[record]]
compound = "CC(C)(O)C(=O)N1CCN(c2ccc(C(F)(F)F)c(C3=C(c4c[nH]c5ccccc45)C(=O)NC3=O)c2)CC1"
measure_unit = "%"
reported = 1

[[record]]
compound = "N[C@](CC1c2ccccc2Oc2ccccc21)(C(=O)O)[C@H]1C[C@@H]1C(=O)O"
measure_unit = "%"
reported = 2

[[record]]
compound = "Cc1c(Cc2ccc3ccccc3n2)c2cc(F)ccc2n1CC(=O)O [TIMAPIPRANT]"
measure_unit = "%"
reported = 1

[[record]]
compound = "Nc1nc(CC(=O)Nc2ccc(CCNC[C@H](O)c3ccccc3)cc2)cs1 [MIRABEGRON]"
measure_unit = "%"
reported = 5

[[record]]
compound = "C=CCN1C[C@H](C(=O)N(CCCN(C)C)C(=O)NCC)C[C@@H]2c3cccc4[nH]cc(c34)C[C@H]21 [CABERGOLINE]"
measure_unit = "%"
reported = 4

[[record]]
compound = "CCC(=O)OCC(=O)[C@@]1(OC(=O)CC)[C@@H](C)C[C@H]2[C@@H]3CCC4=CC(=O)C=C[C@]4(C)[C@@]3(Cl)[C@@H](O)C[C@@]21C [BECLOMETHASONE DIPROPIONATE]"
measure_unit = "%"
reported = 1

[[record]]
compound = "COc1cc2nc(N3CCN(C(=O)c4ccco4)CC3)nc(N)c2cc1OC.Cl [PRAZOSIN HYDROCHLORIDE]"
measure_unit = "%"
reported = 2

[[record]]
compound = "C[C@@H]1CC(=O)Nc2cccc(-c3ccc4c(c3)c(-c3cnn(C)c3)nn4C)c2N1"
measure_unit = "%"
reported = 2

[[record]]
compound = "Cc1cc(-c2ccc3c(c2)CC[C@H]3N2CC3(CCN(C(=O)Cc4cn5cc(C)sc5n4)CC3)C2)ncn1 [PF-5190457]"
measure_unit = "%"
reported = 2

[[record]]
compound = "CCn1c(-c2nc3cc(C(=O)N4CCCC(N)C4)ccc3n2C)cc2ccccc21.Cl (stereo not drawn)"
measure_unit = "%"
reported = 0

[[record]]
compound = "C[C@H](NC(=O)CNC(=O)c1cccc(Cl)c1)c1ccccc1"
measure_unit = "%"
reported = 1

[[record]]
compound = "CN(C)C/C=C/C(=O)Nc1ccc(C(=O)N2CCCC(Nc3ncc(Cl)c(-c4c[nH]c5ccccc45)n3)C2)cc1 (stereo not drawn)"
measure_unit = "%"
reported = 7

[[record]]
compound = "COc1cc(C(=O)N2CC[C@@H](O)[C@@H](N)C2)cc2nc(-c3cc4ccccc4n3CC3CC3)n(C)c12.Cl"
measure_unit = "%"
reported = 3

[[record]]
compound = "CN1C[C@H](C(=O)N[C@]2(C)O[C@@]3(O)[C@@H]4CCCN4C(=O)[C@H](Cc4ccccc4)N3C2=O)C[C@@H]2c3cccc4[nH]cc(c34)C[C@H]21.CS(=O)(=O)O [DIHYDROERGOTAMINE MESYLATE]"
measure_unit = "%"
reported = 1

[[record]]
compound = "O=C(NCCNCC(O)COc1ccc(O)cc1)N1CCOCC1.O=C(NCCNCC(O)COc1ccc(O)cc1)N1CCOCC1.O=C(O)/C=C/C(=O)O (stereo not drawn) [XAMOTEROL FUMARATE]"
measure_unit = "%"
reported = 1

[[record]]
compound = "CN1CCN2c3ccccc3Cc3ccccc3C2C1.Cl (stereo not drawn) [MIANSERIN HYDROCHLORIDE]"
measure_unit = "%"
reported = 2

[[record]]
compound = "COc1c(Nc2ccc(S(C)(=O)=O)nc2C)ncnc1OC1CCN(C(=O)OC(C)C)CC1 [ADP-597]"
measure_unit = "%"
reported = 4

[[record]]
compound = "CCCCCCNC(=O)Nc1ccc(S(=O)(=O)Nc2ccc(CCNC[C@H](O)COc3ccc(O)cc3)cc2)cc1 [L-755507]"
measure_unit = "%"
reported = 1

[[record]]
compound = "COC(c1ccccc1)(c1ccccc1)[C@H](Oc1nc(C)cc(C)n1)C(=O)O [AMBRISENTAN]"
measure_unit = "%"
reported = 2

[[record]]
compound = "CC(C)C[C@H](CO)Nc1nc(S[C@@H](C)c2ccccc2)nc2nc(N)sc12 [AZD-8797]"
measure_unit = "%"
reported = 1

[[record]]
compound = "Cc1cc(NC(=O)NCCN2CCC(O)(Cc3ccccc3)CC2)c2ccccc2n1 [PALOSURAN]"
measure_unit = "%"
reported = 2

[[record]]
compound = "Cc1cc(=O)n(C)c2cc(N3C(=O)CC[C@H](NS(=O)(=O)CC(C)C)[C@H]3c3ccc(Cl)cc3)ccc12"
measure_unit = "%"
reported = 2

[[record]]
compound = "Cl.Cl.OCCOCCN1CCN(C(c2ccccc2)c2ccc(Cl)cc2)CC1 (stereo not drawn) [HYDROXYZINE HYDROCHLORIDE]"
measure_unit = "%"
reported = 1

[[record]]
compound = "CN1CCN(c2ccc(Nc3c4ccccc4nc4ccccc34)cc2)CC1.Cl.Cl.O"
measure_unit = "%"
reported = 0

[[record]]
compound = "O=c1nc2[nH]c3ccccc3nc-2c(=O)[nH]1 [ALLOXAZINE]"
measure_unit = "%"
reported = 3

[[record]]
compound = "COc1cc2nc(N3CCN(C(=O)COc4c(OC)cccc4C(C)C)CC3)nc(N)c2cc1OC.Cl.Cl"
measure_unit = "%"
reported = 3

[[record]]
compound = "CN1CCC(C(=O)c2cccc(NC(=O)c3c(F)cc(F)cc3F)n2)CC1"
measure_unit = "%"
reported = 1

[[record]]
compound = "Cc1cc(O)c(-c2ccc([C@@H](C)CN(C)C)cc2)c2c1[nH]c(=O)c1sccc12"
measure_unit = "%"
reported = 7

[[record]]
compound = "COCCn1c(C)c(C)s/c1=N\\C(=O)C1C(C)(C)C1(C)C"
measure_unit = "%"
reported = 2

[[record]]
compound = "CSc1nc(NC2CCCC2)c([N+](=O)[O-])c(NC2CCCC2)n1 [GS-39783]"
measure_unit = "%"
reported = 2

